- MEASUREMENT_TARGET: GCK enzymatic reaction inhibited by GKRP (recombinant human GCK and GKRP) (Homo sapiens, UniProt P35557+Q14397)
- Construct: made in house
- Sequence (P35557 whole entry): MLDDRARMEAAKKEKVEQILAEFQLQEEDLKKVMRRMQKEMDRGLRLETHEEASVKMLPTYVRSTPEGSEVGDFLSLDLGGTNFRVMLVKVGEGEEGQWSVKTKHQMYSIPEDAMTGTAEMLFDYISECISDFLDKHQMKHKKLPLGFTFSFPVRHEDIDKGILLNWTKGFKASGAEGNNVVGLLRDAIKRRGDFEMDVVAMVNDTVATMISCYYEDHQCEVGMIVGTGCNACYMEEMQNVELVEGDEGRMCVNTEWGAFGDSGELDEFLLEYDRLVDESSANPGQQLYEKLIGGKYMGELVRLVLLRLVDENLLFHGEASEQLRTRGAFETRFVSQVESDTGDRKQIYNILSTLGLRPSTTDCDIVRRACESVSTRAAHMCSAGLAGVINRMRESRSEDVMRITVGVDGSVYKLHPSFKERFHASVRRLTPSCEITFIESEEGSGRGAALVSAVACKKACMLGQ
- Sequence (Q14397 whole entry): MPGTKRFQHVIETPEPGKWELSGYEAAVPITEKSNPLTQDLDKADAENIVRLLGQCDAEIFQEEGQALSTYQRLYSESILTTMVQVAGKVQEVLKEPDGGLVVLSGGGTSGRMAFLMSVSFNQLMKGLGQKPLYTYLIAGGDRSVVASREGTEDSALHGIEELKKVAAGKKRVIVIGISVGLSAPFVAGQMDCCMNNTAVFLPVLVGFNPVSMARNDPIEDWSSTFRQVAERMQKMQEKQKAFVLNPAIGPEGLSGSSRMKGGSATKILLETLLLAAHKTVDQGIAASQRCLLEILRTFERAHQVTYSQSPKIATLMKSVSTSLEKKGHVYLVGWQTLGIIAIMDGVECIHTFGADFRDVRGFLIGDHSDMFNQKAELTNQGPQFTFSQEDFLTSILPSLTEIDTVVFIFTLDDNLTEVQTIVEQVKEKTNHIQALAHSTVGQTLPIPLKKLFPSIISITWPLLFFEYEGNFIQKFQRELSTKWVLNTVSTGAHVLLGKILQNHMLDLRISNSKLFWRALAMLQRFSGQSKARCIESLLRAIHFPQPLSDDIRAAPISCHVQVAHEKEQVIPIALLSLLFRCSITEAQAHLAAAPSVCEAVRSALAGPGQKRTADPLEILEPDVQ
- ASSAY_TEXT: Bioluminescence assay (ADP-Glo) of the GCK enzyme reaction with GKRP
- Assay type: biochemical
- CONDITION_SET: 15 nM GCK, 15 nM GKRP, 75 minutes, mean ± SD; read-out: EC50 (activation of GCK enzymatic reaction, increase in luminescence)
MEASURE: EC50 (µM)
Answers are plain numbers, in µM.

Query block: Which EC50 value belongs to O=C(COP(=O)(O)O)[C@@H](O)[C@H](O)[C@H](O)CO [F1P, fructose 1-phosphate] ?
Result block: 1

----------
- MEASUREMENT_TARGET: GCK enzymatic reaction inhibited by GKRP (recombinant human GCK and GKRP) (Homo sapiens, UniProt P35557+Q14397)
- Construct: made in house
- ASSAY_TEXT: Diaphorase-coupled kinetic assay (G6PDH/diaphorase dual-coupled)
- Type: biochemical
- CONDITION_SET: 10 nM GCK, 10 nM GKRP, t = 10 minutes, mean ± SD
- Experimental: […] The reaction rate for both 10 nM GCK alone and for 10 nM GCK with 10 nM GKRP was linear for the entire 30-minute time-course. […] The IC80 value for S6P was calculated as 1.5 µM. […]
MEASURE: pEC50
One number for each entry, as −log10 of the molar value.

Query block: Requested field: pEC50. Item: O=C(COP(=O)(O)O)[C@@H](O)[C@H](O)[C@H](O)CO [F1P, fructose 1-phosphate]
Result block: 5.40

----------
Please respond with reported IC50 for every item in the list.
- MEASUREMENT_TARGET: GCK-GKRP interaction (recombinant human GST-GCK and FLAG-GKRP) (Homo sapiens, UniProt P35557+Q14397)
- Sequence (P35557 whole entry): as the sequence (P35557 whole entry) above
- Sequence (Q14397 whole entry): as the sequence (Q14397 whole entry) above
- ASSAY_TEXT: HTRF assay of the GCK-GKRP protein-protein interaction
- CONDITION_SET: 5 nM GCK, 5 nM GKRP, 2 µM S6P, mean ± SD; read-out: IC50 (inhibition of GCK-GKRP interaction, HTRF signal)
- Method: Homogeneous time-resolved fluorescence (HTRF) technology (Cisbio Bioassays, Bedford, MA, USA) was utilized for antibody-based FRET measurement of the GCK-GKRP protein-protein interaction. […] The assay was validated using a range (0–150 nM) of GCK and GKRP concentrations at manufacturer-recommended detection antibody concentrations ( Figure 2A ). Fluorescence was measured immediately upon mixing, and every 30 minutes thereafter for a total of 240 minutes. […]
One number for each entry, in mM.

| COMPOUND | UNITS_OF_MEASURE | IC50 |
| --- | --- | --- |
| OC[C@H]1OC(O)[C@H](O)[C@@H](O)[C@@H]1O (some centres unmarked) | mM | 16 |

Next compound, please.
Query block: May I ask what IC50 has been recorded for O=C(COP(=O)(O)O)[C@@H](O)[C@H](O)[C@H](O)CO [F1P, fructose 1-phosphate] ?
Result block: 0.07

----------
- MEASUREMENT_TARGET: GCK enzymatic reaction inhibited by GKRP (recombinant human GCK and GKRP) (Homo sapiens, UniProt P35557+Q14397)
- Construct: made in house
- ASSAY_TEXT: Diaphorase-coupled kinetic assay (G6PDH/diaphorase dual-coupled)
- Type: biochemical
- CONDITION_SET: 10 nM GCK, 10 nM GKRP, t = 10 minutes, mean ± SD
MEASURE: IC50 (µM)
Give bare numbers, in µM.

Query block: Any idea what its IC50 is? The compound is O=P(O)(O)OC[C@@H](O)[C@@H](O)[C@H](O)[C@@H](O)CO [S6P, sorbitol 6-phosphate]
Result block: 0.4

Data origin: paper PMC3929664
